SPOT signal as a fraction of Bim BH3's signal on the same receptor and array by entry:
# testTarget: T1, Mcl-1, Q07820
# T1 chain: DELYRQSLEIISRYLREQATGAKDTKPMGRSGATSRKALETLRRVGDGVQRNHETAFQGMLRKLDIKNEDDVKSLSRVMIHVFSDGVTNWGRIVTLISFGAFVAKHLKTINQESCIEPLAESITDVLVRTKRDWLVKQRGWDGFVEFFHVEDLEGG
# assayProcedure: peptide SPOT array, c-Myc-tagged receptor at 1 uM or 100 nM, anti-c-Myc-Cy3
Number only, no unit.

- binder: "AKTSQTVATFLDELAQKLKPLGEQER [THOP1]"
  experimentalResult: 0.02
- binder: "QCPIFRLGDIFRETLDNFSDVAIQGG [P2RX7]"
  experimentalResult: 0.05
- binder: "VLAPVQLGKWLVLFLDEINLPDMDKY [DYNC1H1]"
  experimentalResult: 0.08
- binder: "YFKLFRASGDDRTNGDNYLYEIQLSS [IGF2R]"
  experimentalResult: 0.28
- binder: "APGEEDLCAAFNVICDNVGKDWRRLA [FADD]"
  experimentalResult: 0.16
- binder: "MPYMEAVIHEIQRFGDVIPMSLARRV [CYP2A6]"
  experimentalResult: 0.1

Now take the following binder into account.
Note down SPOT signal as a fraction of Bim BH3's signal on the same receptor and array recorded for SQGKHGFTMADNAFGDMTNEEFRQMM [CTSL2]
0.06

Where do the numbers come from? From paper PMC4072508.
